ASSAY TARGET: HigB;HigA (Streptococcus pneumoniae …, UniProt A0A0H2UQ08;A0A0H2UQ20 1-121;1-97, |)
ASSAY TEXT: ITC; n=0.48; ITC: 50 mM MES pH 6.0, 100 mM NaCl, 25 C; […]
MEASUREMENT CONDITIONS: protein: recombinant;recombinant; chain copies: 2;2; blunt
pKd: −log10 of the molar value.
METRIC: pKd

>>> print(df.to_string())
                                     binder  assay_result
0  Pal-IV (dsDNA) DNA 1: TAGGTTATAATTGTTATTAGGAA DNA 2: TTCCTAATAACAATTATAACCTA          5.92
1  Pal-III (dsDNA) DNA 1: TATTTTAATAACTTAAAAGT DNA 2: ACTTTTAAGTTATTAAAATA          6.70
